assay: DPPH radical scavenging activity assessed as absorption change at 60 ppm by spectrophotometry; assay type: functional
Measure Name: deltaA (%)
Report as a plain number; the unit % is understood.

## Input Hello, please tell me recorded deltaA for this one: C[C@@H]1O[C@@H](OC[C@H]2O[C@@H](Oc3c(-c4ccc(O)c(O)c4)oc4cc(O)cc(O)c4c3=O)[C@H](O)[C@@H](O)[C@@H]2O)[C@H](O)[C@H](O)[C@H]1O
## Output 92

## Input Hello, please tell me recorded deltaA for this one: COc1cc(/C=C/C(=O)O[C@@H]2CC[C@H](CCCCCCCCCCC(C)=O)N[C@@H]2C)ccc1O
## Output 40
